Protocol Description: Biodistribution in BALB/c nu/nu mice bearing PC-3 xenografts
Assay type: in vivo
Test Context: female, BALB/c nu/nu, mouse, bone, iv, total radioactivity; Blockade (co-injection of NOTA-PEG2-RM26), 2 h; read-out: Radionuclide concentration, Bone
Starred links: 1 amine or outer side, 2 acyl side, 3 side chain; linkers in the order of their positions; H or OH if unused. Non-standard residues stand in square brackets, D forms with d. Residues, ends and D or L forms follow the SMILES beside them. *: point of attachment. NOTA = O=C(O)CN1CCN(CC(=O)O)CCN(CC(=O)*)CC1; Sta = CC(C)C[C@H](N)[C@@H](O)CC(=O)O; X2 = O=C(COc1cccc(CN[*:1])c1)[*:2]; X1 = O=C(Cc1ccccc1CCN[*:1])[*:2]; X3 = O=C(COc1ccccc1CN[*:1])[*:2]
Measured Property: tissue uptake at 2 h (%ID/g)

1. CC(=O)N[C@@H](CCCCNC(=O)CN1CCN(CC(=O)O)CCN(CC(=O)O)CC1)C(=O)NCc1cccc(OCC(=O)N[C@H](Cc2ccccc2)C(=O)N[C@@H](CCC(N)=O)C(=O)N[C@@H](Cc2c[nH]c3ccccc23)C(=O)N[C@@H](C)C(=O)N[C@H](C(=O)NCC(=O)N[C@@H](Cc2c[nH]cn2)C(=O)N[C@@H](CC(C)C)[C@@H](O)CC(=O)N[C@@H](CC(C)C)C(N)=O)C(C)C)c1 [[^68Ga]Ga-NOTA-mMA-RM26, metal not drawn] (Ac-K(NOTA)[X2][dF]QWAVGH[Sta]L-NH2)	0.25
2. CC(=O)N[C@@H](CCCCNC(=O)CN1CCN(CC(=O)O)CCN(CC(=O)O)CC1)C(=O)NCc1ccccc1OCC(=O)N[C@H](Cc1ccccc1)C(=O)N[C@@H](CCC(N)=O)C(=O)N[C@@H](Cc1c[nH]c2ccccc12)C(=O)N[C@@H](C)C(=O)N[C@H](C(=O)NCC(=O)N[C@@H](Cc1c[nH]cn1)C(=O)N[C@@H](CC(C)C)[C@@H](O)CC(=O)N[C@@H](CC(C)C)C(N)=O)C(C)C [[^68Ga]Ga-NOTA-oMA-RM26, metal not drawn] (Ac-K(NOTA)[X3][dF]QWAVGH[Sta]L-NH2)	0.23
3. CC(=O)N[C@@H](CCCCNC(=O)CN1CCN(CC(=O)O)CCN(CC(=O)O)CC1)C(=O)NCCc1ccccc1CC(=O)N[C@H](Cc1ccccc1)C(=O)N[C@@H](CCC(N)=O)C(=O)N[C@@H](Cc1c[nH]c2ccccc12)C(=O)N[C@@H](C)C(=O)N[C@H](C(=O)NCC(=O)N[C@@H](Cc1c[nH]cn1)C(=O)N[C@@H](CC(C)C)[C@@H](O)CC(=O)N[C@@H](CC(C)C)C(N)=O)C(C)C [[^68Ga]Ga-NOTA-oET-RM26, metal not drawn] (Ac-K(NOTA)[X1][dF]QWAVGH[Sta]L-NH2)	0.33
